Every entry's value here was drawn from patent US20210214435A1.

EC50 (read off the curve) listing for selected binders.
# TARGET_UNDER_TEST: human GPVI on the cell surface of human platelets (human) (UniProt Q9HCN6)
# PROTOCOL_DESCRIPTION: FACS on washed human platelets from PRP (one exemplary donor), PE-conjugated detection antibody, median fluorescence
Write down the numeric answer in µg/mL and omit the unit.

Use the examples below as a reference point.
{"BINDER": "Fab #1 comprising a modified heavy chain constant region (Fab, V domains shown) VH: QVQLVQSGAEVKKPGASVKVSCKASGYTFTSHYMHWVRQAPGQGLEWMGLIEPSEGETEYAQRFQGRVTMTRDTSTSTVYMELSSLRSEDTAVYYCARDSSRSYPLGFDIWGQGTLVTVSS VL: QSVLTQPPSVSAAPGQKVTISCSGSSSNIGNNYVSWYQQLPGTAPKLLIYDNNKRPSGIPDRFSGSKSGTSATLGITGLQTEDEADYYCAAWDFRSSRWVFGGGTKLTVLG", "EC50 (read off the curve) [µg/mL]": 0.2}
{"BINDER": "Fab #2 comprising a modified heavy chain constant region (Fab, V domains shown) VH: QVQLVESGGGLVKPGGSLRLSCAASGFSFSDHYMSWIRQAPGKGLEWVSSVGSEGKFIDYAASVKGRFTISRDNAKNSLYLQMNSLRAEDTAVYYCARHYREFRWHYYYFDYWGQGTLVTVSS VL: QSVLTQPPSVSGAPGQRVTISCTGSSSNIGAGYDVHWYQQLPGTAPKLLIYGNSNRPSGVPDRFSGSKSGTSASLAITGLQAEDEADYYCQSHDLGAHVWVFGGGTKLTVLG", "EC50 (read off the curve) [µg/mL]": 0.4}
{"BINDER": "Fab #4 comprising a modified heavy chain constant region (Fab, V domains shown) VH: QVQLVQSGAEVKKPGASVKVSCKASGGAFTSSYMHWVRQAPGQGLEWMGIIEPTGASTLYAQRFQGRVTMTRDTSTSTVYMELSSLRSEDTAVYYCARTGIALPLGFDLWGQGTLVTVSS VL: QSVLTQPPSVSAAPGQKVTISCSGSSSNIGNNYVSWYQQLPGTAPKLLIYDNNKRPSGIPDRFSGSKSGTSATLGITGLQTEDEADYYCAAWSTRFRWVFGGGTKLTVLG", "EC50 (read off the curve) [µg/mL]": 0.5}
{"BINDER": "Fab #3 comprising a modified heavy chain constant region (Fab, V domains shown) VH: QVQLVESGGGLVKPGGSLRLSCAASGFSFGDYYVSWIRQAPGKGLEWVSAIGGSGSAVQYAESVKGRFTISRDNAKNSLYLQMNSLRAEDTAVYYCARHYREFRWHYYYFDYWGQGTLVTVSS VL: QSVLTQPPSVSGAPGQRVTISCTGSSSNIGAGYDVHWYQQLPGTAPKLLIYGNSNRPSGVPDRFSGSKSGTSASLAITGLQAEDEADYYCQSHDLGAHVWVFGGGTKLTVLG", "EC50 (read off the curve) [µg/mL]": 0.4}

Now look at this one.
Q. Could you share which EC50 (read off the curve) value was measured for Reference Control Antibody RefFab #1 (humanized GPVI antibody of WO2011073954A2, SANOFI) (Fab, V domains shown) VH: EVQLLESGPGLVAPSGSLSITCTVSGFSLTGYGVNWVRQPPGKGLEWLGMIWGDGSTDYQSTLKSRLSISKDNSKSQVFLKMNSLRTDDTARYYCARDLPMDYWGLGTSVTVSS VL: DIQMTQSPSSLSASVGGRVTITCKASQDINKYIAWYQHKPGKGPSLLIHYTSTLQPGVPSRFSGSGSGRDYSFSISNLQPEDIATYYCLQYANLLTFGGGTKLEIKR ?
A. 1
